# TEST NAME: HILIC, Waters ACQUITY UPLC BEH Amide, 100 × 2.1 mm, 1.7 µm; A: water + 0.125% formic acid + 10 mM ammonium formate; B: 5% water + 95% acetonitrile + 0.125% formic acid + 10 mM ammonium formate; gradient (min/%B) 0/100 2/100 7.7/70 9.5/40 10.25/30 12.75/100 17/100
# DETAILS: stereoisomer not certain
Entries and their LC retention time values follow.
OBSERVABLE: LC retention time (min)

[[record]]
molecule = "CCCCCC(=O)O [Hexanoic acid]"
recorded_value = 4.89

[[record]]
molecule = "CC1=C2C3OC(=O)C(C)C3CCC2(C)C=CC1=O (stereo not drawn) [alpha-Santonin]"
recorded_value = 1.07

[[record]]
molecule = "CCC(=O)OC(Cc1ccccc1)(c1ccccc1)C(C)CN(C)C (stereo not drawn) [Propoxyphene]"
recorded_value = 2.01


---

Entries and their LC retention time values follow.
# TEST NAME: HILIC, Waters ACQUITY UPLC BEH Amide, 100 × 2.1 mm, 1.7 µm; A: water + 0.125% formic acid + 10 mM ammonium formate; B: 5% water + 95% acetonitrile + 0.125% formic acid + 10 mM ammonium formate; gradient (min/%B) 0/100 2/100 7.7/70 9.5/40 10.25/30 12.75/100 17/100
# DETAILS: stereoisomer not certain
OBSERVABLE: LC retention time

[[record]]
compound = "CN1C2CCCC1CC(NC(=O)c1nn(C)c3ccccc13)C2 (configuration not stated) [Granisetron]"
observable = "LC retention time"
recorded_value = "4.12 min"

[[record]]
compound = "COC(=O)CN [Methylglycinate]"
observable = "LC retention time"
recorded_value = "5.29 min"

[[record]]
compound = "N[C@H]1[C@@H](OP(=O)(O)O)O[C@H](CO)[C@H](O)[C@@H]1O [alpha-Galactosamine-1-phosphate]"
observable = "LC retention time"
recorded_value = "7.06 min"

[[record]]
compound = "NC(CCSSCCC(N)C(=O)O)C(=O)O (configuration not stated) [Homocystine]"
observable = "LC retention time"
recorded_value = "9.58 min"

[[record]]
compound = "NC(N)=NCCCC(N)C(=O)NC(CO)C(=O)O (configuration not stated) [Arg-Ser]"
observable = "LC retention time"
recorded_value = "9.9 min"

[[record]]
compound = "NCCS(=O)(=O)O [Taurine]"
observable = "LC retention time"
recorded_value = "7.85 min"

[[record]]
compound = "CC1=NS(=O)(=O)c2cc(Cl)ccc2N1 [Diazoxide]"
observable = "LC retention time"
recorded_value = "1.09 min"

[[record]]
compound = "COc1cc(C)c(Cc2cnc(N)nc2N)cc1OC [Ormetroprim]"
observable = "LC retention time"
recorded_value = "4.19 min"

[[record]]
compound = "CN1CCCC1c1cccnc1 (configuration not stated) [Nicotine]"
observable = "LC retention time"
recorded_value = "5.34 min"

[[record]]
compound = "COc1cc2nc(N(C)CCCNC(=O)C3CCCO3)nc(N)c2cc1OC (configuration not stated) [Alfuzosin]"
observable = "LC retention time"
recorded_value = "4.29 min"

[[record]]
compound = "COC1=C(OC)C(=O)C(CCCCCCCCCCO)=C(C)C1=O [Idebenone]"
observable = "LC retention time"
recorded_value = "0.96 min"

[[record]]
compound = "Cn1cncc1CC(N)C(=O)O (configuration not stated) [3-Methylhistidine]"
observable = "LC retention time"
recorded_value = "9.41 min"

[[record]]
compound = "C[N+](C)(C)CCCCC(N)C(=O)[O-] (configuration not stated) [NEPSILON,NEPSILON,NEPSILON-TRIMETHYLLYSINE]"
observable = "LC retention time"
recorded_value = "9.29 min"

[[record]]
compound = "CS(=O)CCCCC(=NO)SC1OC(CO)C(O)C(O)C1O (configuration not stated) [Desulfo Glucoraphanin]"
observable = "LC retention time"
recorded_value = "6.61 min"

[[record]]
compound = "NCC(=O)c1ccccc1 [2-Aminoacetophenone]"
observable = "LC retention time"
recorded_value = "1.08 min"

[[record]]
compound = "COC1C(O)C(CO)OC1n1ccc(=O)[nH]c1=O (configuration not stated) [2'-O-Methyluridine]"
observable = "LC retention time"
recorded_value = "2.24 min"

[[record]]
compound = "COc1cc(CNC(=O)CCCCCCC(C)C)ccc1O [Dihydrocapsaicin]"
observable = "LC retention time"
recorded_value = "1.07 min"

[[record]]
compound = "O=c1ccn(C2CCC(CO)O2)c(=O)[nH]1 (configuration not stated) [2,3-Dideoxyuridine]"
observable = "LC retention time"
recorded_value = "1.73 min"

[[record]]
compound = "CC12CCC3C(CCC4CC(O)CCC43C)C1CCC2O (configuration not stated) [Androstane-3,17-diol]"
observable = "LC retention time"
recorded_value = "0.96 min"

[[record]]
compound = "Cc1ncc(COP(=O)(O)O)c(C=O)c1O [Pyridoxal-5-phosphate]"
observable = "LC retention time"
recorded_value = "7.7 min"

[[record]]
compound = "CCN(C(C)=O)c1cccc(-c2ccnc3c(C#N)cnn23)c1 [Zaleplon]"
observable = "LC retention time"
recorded_value = "1.02 min"

[[record]]
compound = "CN(C)CCC(c1ccc(Cl)cc1)c1ccccn1 (configuration not stated) [Chlorpheniramine]"
observable = "LC retention time"
recorded_value = "2.54 min"

[[record]]
compound = "CC(=O)n1ccnc1 [1-Acetylimidazole]"
observable = "LC retention time"
recorded_value = "1.37 min"

[[record]]
compound = "O=c1c(-c2ccc(O)cc2)coc2cc(O)cc(O)c12 [4,5,7-Trihydroxyisoflavone]"
observable = "LC retention time"
recorded_value = "1.27 min"

[[record]]
compound = "NC(CCC(=O)NC(CSSCC(NC(=O)CCC(N)C(=O)O)C(=O)NCC(=O)O)C(=O)NCC(=O)O)C(=O)O (configuration not stated) [Glutathione (oxidized)]"
observable = "LC retention time"
recorded_value = "10.2 min"

[[record]]
compound = "NC(Cn1ccc(=O)[nH]c1=O)C(=O)O (configuration not stated) [Willardiine]"
observable = "LC retention time"
recorded_value = "8.72 min"

[[record]]
compound = "NC(=O)CCC(NC(=O)Cc1ccccc1)C(=O)O (configuration not stated) [Phenylacetylglutamine]"
observable = "LC retention time"
recorded_value = "6.03 min"


---

Entries and their LC retention time values follow.
# TEST NAME: HILIC, Waters ACQUITY UPLC BEH Amide, 100 × 2.1 mm, 1.7 µm; A: water + 0.125% formic acid + 10 mM ammonium formate; B: 5% water + 95% acetonitrile + 0.125% formic acid + 10 mM ammonium formate; gradient (min/%B) 0/100 2/100 7.7/70 9.5/40 10.25/30 12.75/100 17/100
# DETAILS: stereoisomer not certain
OBSERVABLE: LC retention time

[[record]]
compound = "COc1ccccc1OCCNCC(O)COc1cccc2[nH]c3ccccc3c12 (stereo not drawn)"
observable = "LC retention time"
recorded_value = "3.17 min"

[[record]]
compound = "c1ncc2[nH]cnc2n1"
observable = "LC retention time"
recorded_value = "2.44 min"

[[record]]
compound = "NC(=O)NC(CCC(=O)O)C(=O)O (stereo not drawn)"
observable = "LC retention time"
recorded_value = "7.8 min"

[[record]]
compound = "CC(Cc1ccc(C(C)C(=O)O)cc1)C(=O)O (stereo not drawn)"
observable = "LC retention time"
recorded_value = "1.11 min"

[[record]]
compound = "CN=C(N)NCCCC(N)C(=O)O (stereo not drawn)"
observable = "LC retention time"
recorded_value = "9.22 min"

[[record]]
compound = "COc1ccc2nc(S(=O)Cc3ncc(C)c(OC)c3C)[nH]c2c1 (stereo not drawn)"
observable = "LC retention time"
recorded_value = "1.35 min"

[[record]]
compound = "CCCCCCCCCCCCCCC(O)C(O)C(N)CO (stereo not drawn)"
observable = "LC retention time"
recorded_value = "5.18 min"

[[record]]
compound = "NCCCCC(N)C(=O)O (stereo not drawn)"
observable = "LC retention time"
recorded_value = "9.54 min"

[[record]]
compound = "Cn1c(=O)[nH]c2[nH]c(=O)[nH]c2c1=O"
observable = "LC retention time"
recorded_value = "2.18 min"

[[record]]
compound = "O=C(O)C1CCCN1 (stereo not drawn)"
observable = "LC retention time"
recorded_value = "7.83 min"

[[record]]
compound = "OCC1OC(n2cnc3c(NC4CCCC4O)ncnc32)C(O)C1O (stereo not drawn) [N-2-Hydroxycyclopentyladenosine]"
observable = "LC retention time"
recorded_value = "3.48 min"

[[record]]
compound = "O=C1CCc2ccc(OCCCCN3CCN(c4cccc(Cl)c4Cl)CC3)cc2N1"
observable = "LC retention time"
recorded_value = "3.14 min"

[[record]]
compound = "O=C(O)CCC(=O)O"
observable = "LC retention time"
recorded_value = "4.46 min"

[[record]]
compound = "CCCCCCCCCCCCCCCC(=O)OC(CC(=O)[O-])C[N+](C)(C)C (stereo not drawn)"
observable = "LC retention time"
recorded_value = "3.23 min"

[[record]]
compound = "C[N+]1(C)CCCC1C(=O)O (stereo not drawn) [Stachydrine]"
observable = "LC retention time"
recorded_value = "7.1 min"

[[record]]
compound = "NC(Cc1c[nH]c2ccc(O)cc12)C(=O)O (stereo not drawn) [5-Hydroxytryptophan]"
observable = "LC retention time"
recorded_value = "7.48 min"

[[record]]
compound = "NCCc1ccc(O)c(O)c1"
observable = "LC retention time"
recorded_value = "6.4 min"

[[record]]
compound = "Clc1ccc2c(c1)CCc1cccnc1C2=C1CCNCC1"
observable = "LC retention time"
recorded_value = "4.9 min"

[[record]]
compound = "CC1C(=O)Nc2ccccc21 (stereo not drawn)"
observable = "LC retention time"
recorded_value = "1.07 min"

[[record]]
compound = "NCCCCC(N)C(=O)NCC(=O)O (stereo not drawn)"
observable = "LC retention time"
recorded_value = "9.84 min"

[[record]]
compound = "O=C1N(c2ccccc2)c2ccccc2C1(Cc1ccncc1)Cc1ccncc1"
observable = "LC retention time"
recorded_value = "1.17 min"

[[record]]
compound = "CC(C)C(NC(=O)C(N)CCC(=O)O)C(=O)NC(Cc1ccccc1)C(=O)O (stereo not drawn)"
observable = "LC retention time"
recorded_value = "7.66 min"

[[record]]
compound = "C=CC1=C(C(=O)O)N2C(=O)C(NC(=O)C(=NOCC(=O)O)c3csc(N)n3)C2SC1 (stereo not drawn)"
observable = "LC retention time"
recorded_value = "7.79 min"

[[record]]
compound = "CC(C)(C)NCC(O)c1ccc(O)c(CO)c1 (stereo not drawn)"
observable = "LC retention time"
recorded_value = "5.55 min"

[[record]]
compound = "Nc1cc(CC(N)C(=O)O)ccc1O (stereo not drawn)"
observable = "LC retention time"
recorded_value = "8.06 min"

[[record]]
compound = "Cc1nccn1CC1CCc2c(c3ccccc3n2C)C1=O (stereo not drawn)"
observable = "LC retention time"
recorded_value = "2.83 min"

[[record]]
compound = "O=CCc1ccccc1"
observable = "LC retention time"
recorded_value = "5.4 min"

[[record]]
compound = "CC1CNC(=O)NC1=O (stereo not drawn) [5,6-Dihydro-5-methyluracil]"
observable = "LC retention time"
recorded_value = "1.57 min"

[[record]]
compound = "CNC(=C[N+](=O)[O-])NCCSCc1ccc(CN(C)C)o1"
observable = "LC retention time"
recorded_value = "5.18 min"

[[record]]
compound = "CC1CNc2c(cccc2S(=O)(=O)NC(CCCN=C(N)N)C(=O)N2CCC(C)CC2C(=O)O)C1 (stereo not drawn)"
observable = "LC retention time"
recorded_value = "5.45 min"

[[record]]
compound = "CC12CCC(=O)C=C1CCC1C2C(O)CC2(C)C1CCC2(O)C(=O)CO (stereo not drawn) [Hydrocortisone]"
observable = "LC retention time"
recorded_value = "2.56 min"

[[record]]
compound = "COc1ccc2c3c1OC1CC(O)C=CC31CCN(C)C2 (stereo not drawn)"
observable = "LC retention time"
recorded_value = "4.62 min"

[[record]]
compound = "Nc1ccn(C2OC(COP(=O)(O)O)C(O)C2O)c(=O)n1 (stereo not drawn) [Cytidine-5'-monophosphate]"
observable = "LC retention time"
recorded_value = "9.48 min"

